av Z values by entry
target.entity: UniProtKB P10636
Sequence (P10636 623-695 limits assumed): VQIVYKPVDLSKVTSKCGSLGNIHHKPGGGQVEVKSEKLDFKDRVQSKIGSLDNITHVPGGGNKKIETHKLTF
assay.remarks: MCE Phenols Library screening, tau biosensor cell seeding assay (AvZ)
Type: cell-based
protocol.conditions: average Z score of the two replicates, MCE Phenols Library screen
Format: numeric value only, no unit, no commentary.

| compound | recorded.measurement |
| --- | --- |
| O=C(O)C[C@H](C(=O)O)[C@H]1c2c(cc(O)c(O)c2O)C(=O)O[C@@H]1C(=O)O | -1.092 |
| Cc1c(C)c2c(c(C)c1O)CCC(C)(CCCC(C)CCCC(C)CCCC(C)C)O2 (racemic) | -0.496 |
| Cc1cc(=O)oc2c(O)c(O)ccc12 | -0.889 |
| COc1cc(CCC(=O)CC(=O)CCc2ccc(O)c(OC)c2)ccc1O [Tetrahydrocurcumin] | -0.211 |
| COc1cc(O)c2c(c1)O[C@H](c1ccccc1)CC2=O | -0.422 |

Qu. Fill in the blank: the reported av Z of CC(C)=CCC/C(C)=C/Cc1c(O)c(CC=C(C)C)c2c(c1O)C(=O)C1=C[C@@H]3C[C@H]4C(C)(C)O[C@@](C/C=C(/C)C(=O)O)(C3=O)[C@@]14O2 is ____.
Ans. -1.587

Values were extracted from paper PMC11784839.
